# Tested on: DIV17
# experimental-protocol: qHTS profiling for inhibitors of Plasmodium falciparum proliferation (AID 504749); note: nearly all actives have a fitted effect of over 60% in size
# run-conditions: P. falciparum in erythrocytes, SYBR Green DNA, 72 h; series mostly up to 28.7 µM
Records with an inconclusive call do not appear. Activity calls are given as the source filed them. Calls come from the whole dose curve; as a rule, active = well fitted inhibition curve with a large enough effect; inconclusive = small, poorly fitted or top-dose-only effect; inactive = flat fitted curve, though single readings scatter. Where a SMILES comes first, the peptide text is derived from it. [ ]: non-standard residue; d: D form. pGlu = O=C1CC[C@@H](C(=O)O)N1; Thz = O=C(O)[C@@H]1CSCN1
Respond using exactly one of the listed classes: active, inactive

Before answering, review these 10 worked examples.
| compound | assigned-label |
| --- | --- |
| CC(C(=O)O)c1ccc2c(c1)[nH]c1ccc(Cl)cc12 (stereo not drawn) | inactive |
| CCCCCCOc1ccccc1C(N)=O | inactive |
| Nc1c(CC(=O)O)cccc1C(=O)c1ccc(Br)cc1 | inactive |
| CN1[C@@H]2CC[C@H]1CC(OC(=O)C(CO)c1ccccc1)C2 (stereo partly drawn) | inactive |
| Nc1ccc(O)c(C(=O)O)c1 | inactive |
| CC(N)C(=O)OC(C)(C)Cc1ccc(Cl)cc1 (stereo not drawn) | active |
| O=C(O)[C@H](O)[C@@H](O)[C@H](O)[C@H](O)CO | inactive |
| C=CCN1C(=O)C(CC(C)C)NC1=S (stereo not drawn) | inactive |
| c1ccc2sc(SSc3nc4ccccc4s3)nc2c1 | inactive |
| Cc1ccccc1CNc1ncnc2c1ncn2C1OC(CO)C(O)C1O (stereo not drawn) | inactive |

Which outcome was entered for the compound `CC(=O)[C@]1(O)Cc2c(O)c3c(c(O)c2[C@@H](O[C@H]2C[C@H](N)[C@H](O)[C@H](C)O2)C1)C(=O)c1c(O)cccc1C3=O` in this test?
active

Which outcome was entered for the compound `O=C(O)c1ccccc1Nc1cccc(C(F)(F)F)c1` in this test?
inactive

Which outcome was entered for the compound `CCCCCC[C@@H](O)C/C=C\CCCCCCCC(=O)O` in this test?
inactive

Which outcome was entered for the compound `Cc1ccc(O)c(-n2nc3ccccc3n2)c1` in this test?
inactive

Which outcome was entered for the compound `CN(C)c1ccc(C(=C2C=CC(=[N+](C)C)C=C2)c2ccccc2)cc1` in this test?
active

Which outcome was entered for the compound O=C1CC[C@@H](C(=O)N2CSC[C@H]2C(=O)O)N1 ([pGlu]-[Thz]-OH) in this test?
inactive

Which outcome was entered for the compound `Oc1c(Br)cc(Br)c2cccnc12` in this test?
inactive

Which outcome was entered for the compound `Cc1ccc(C(=O)c2ccc(CC(=O)O)n2C)cc1` in this test?
inactive

Which outcome was entered for the compound `COc1cc2c3cc1Oc1cc(ccc1O)C[C@@H]1c4c(cc(OC)c(O)c4Oc4ccc(cc4)C[C@@H]3N(C)CC2)CC[N+]1(C)C` in this test?
inactive

Which outcome was entered for the compound `Cc1[nH]cnc1CN1CCc2c(c3ccccc3n2C)C1=O` in this test?
inactive

Which outcome was entered for the compound `CCOc1ccc2nc(S(N)(=O)=O)sc2c1` in this test?
inactive

Which outcome was entered for the compound `CCCCC[C@H](O)/C=C/[C@@H]1[C@@H](C/C=C\CCCC(=O)O)[C@@H](O)C[C@H]1O` in this test?
inactive

Which outcome was entered for the compound `CC1(C)C[C@@H]1C(=O)N/C(=C\CCCCSC[C@H](N)C(=O)O)C(=O)O` in this test?
inactive

The measured values listed here are drawn from PubChem BioAssay (NCATS).
